- TEST_TARGET: BaF3_EGFRWT cells (Homo sapiens, UniProt P00533)
- Sequence (P00533 whole entry, change not shown): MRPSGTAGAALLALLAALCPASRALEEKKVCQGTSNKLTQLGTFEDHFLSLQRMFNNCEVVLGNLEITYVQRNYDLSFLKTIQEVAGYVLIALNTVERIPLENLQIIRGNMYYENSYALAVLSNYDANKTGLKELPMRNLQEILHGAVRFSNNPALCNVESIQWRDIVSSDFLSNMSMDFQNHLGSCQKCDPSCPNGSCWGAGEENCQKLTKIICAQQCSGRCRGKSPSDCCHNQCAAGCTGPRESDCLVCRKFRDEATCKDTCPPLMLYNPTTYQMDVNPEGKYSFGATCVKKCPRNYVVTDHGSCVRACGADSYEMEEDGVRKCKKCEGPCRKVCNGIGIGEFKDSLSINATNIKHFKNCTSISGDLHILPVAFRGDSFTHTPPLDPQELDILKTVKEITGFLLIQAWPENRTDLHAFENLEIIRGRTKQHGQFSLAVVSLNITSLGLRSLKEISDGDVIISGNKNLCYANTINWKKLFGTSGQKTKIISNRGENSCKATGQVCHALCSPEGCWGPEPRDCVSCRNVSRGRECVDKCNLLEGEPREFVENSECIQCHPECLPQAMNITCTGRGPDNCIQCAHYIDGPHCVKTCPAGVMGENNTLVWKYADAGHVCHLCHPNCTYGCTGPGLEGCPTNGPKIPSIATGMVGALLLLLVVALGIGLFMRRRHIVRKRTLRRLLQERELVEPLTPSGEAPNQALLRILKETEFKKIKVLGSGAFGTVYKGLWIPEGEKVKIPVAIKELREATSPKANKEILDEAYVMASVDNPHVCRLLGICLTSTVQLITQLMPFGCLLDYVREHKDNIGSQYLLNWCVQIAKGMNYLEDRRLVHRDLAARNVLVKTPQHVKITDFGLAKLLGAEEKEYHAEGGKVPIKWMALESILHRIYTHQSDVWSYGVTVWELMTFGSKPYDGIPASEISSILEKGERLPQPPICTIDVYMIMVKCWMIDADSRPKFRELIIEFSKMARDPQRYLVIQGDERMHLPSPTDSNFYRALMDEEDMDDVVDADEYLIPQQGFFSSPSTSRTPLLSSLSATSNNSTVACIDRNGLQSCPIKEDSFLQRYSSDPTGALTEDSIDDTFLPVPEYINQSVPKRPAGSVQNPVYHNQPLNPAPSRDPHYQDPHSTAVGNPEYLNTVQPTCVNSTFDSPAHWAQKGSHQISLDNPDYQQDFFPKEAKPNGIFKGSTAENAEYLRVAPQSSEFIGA
- METHOD_DESCRIPTION: Cell growth inhibition assay (CellTiterGlo), BaF3_EGFRWT
- Assay type: cell-based
- PARTICULARS: cell growth inhibition, 80 ng/mL EGF, 3 days treatment, read-out: EGFR WT IC50
MEASURED_QUANTITY: GI50

Field: example entries. Status: answers known.
Cc1cc(Nc2ncnn3ccc([C@@H]4CCCN(C(=O)[C@H](F)Cl)CC4)c23)ccc1Oc1ccn2ncnc2c1 (single isomer, unassigned) [Examples 145, 146, 147 and 148, fourth eluting isomer]; 1500 to 5000 nM
Cc1cc(Nc2ncnn3ccc(C4CCCN(C(=O)/C=C/CN(C)C)C4)c23)ccc1Oc1ccn2ncnc2c1 (single isomer, unassigned) [Examples 107 and 108, second eluting isomer]; 1500 to 5000 nM
C=C(CN(C)C)C(=O)N1CCCC(c2ccn3ncnc(Nc4ccc(Oc5ccn6ncnc6c5)c(C)c4)c23)CC1 (single isomer, unassigned) [Examples 143 and 144, second eluting isomer]; 1500 to 5000 nM
Cc1cc(Nc2ncnn3ccc(C4CCCN(C(=O)C(F)Cl)CC4)c23)ccc1Oc1ccn2ncnc2c1 (single isomer, unassigned) [Examples 145, 146, 147 and 148, first eluting isomer]; 1500 to 5000 nM

Report GI50 for C=CC(=O)N1C2CCC1CC(c1ccn3ncnc(Nc4ccc(Oc5ccn6ncnc6c5)c(C)c4)c13)C2 (single isomer, unassigned) [Examples 124 and 125, first eluting isomer] tested on BaF3_EGFRWT cells (Homo sapiens, UniProt P00533).
< 200 nM

====

- TEST_TARGET: BaF3_HER2YVMA cells (Homo sapiens, UniProt P04626, DUP772-775, cells depend on it)
- Sequence (P04626 with tags, fused parts or gaps DUP772-775): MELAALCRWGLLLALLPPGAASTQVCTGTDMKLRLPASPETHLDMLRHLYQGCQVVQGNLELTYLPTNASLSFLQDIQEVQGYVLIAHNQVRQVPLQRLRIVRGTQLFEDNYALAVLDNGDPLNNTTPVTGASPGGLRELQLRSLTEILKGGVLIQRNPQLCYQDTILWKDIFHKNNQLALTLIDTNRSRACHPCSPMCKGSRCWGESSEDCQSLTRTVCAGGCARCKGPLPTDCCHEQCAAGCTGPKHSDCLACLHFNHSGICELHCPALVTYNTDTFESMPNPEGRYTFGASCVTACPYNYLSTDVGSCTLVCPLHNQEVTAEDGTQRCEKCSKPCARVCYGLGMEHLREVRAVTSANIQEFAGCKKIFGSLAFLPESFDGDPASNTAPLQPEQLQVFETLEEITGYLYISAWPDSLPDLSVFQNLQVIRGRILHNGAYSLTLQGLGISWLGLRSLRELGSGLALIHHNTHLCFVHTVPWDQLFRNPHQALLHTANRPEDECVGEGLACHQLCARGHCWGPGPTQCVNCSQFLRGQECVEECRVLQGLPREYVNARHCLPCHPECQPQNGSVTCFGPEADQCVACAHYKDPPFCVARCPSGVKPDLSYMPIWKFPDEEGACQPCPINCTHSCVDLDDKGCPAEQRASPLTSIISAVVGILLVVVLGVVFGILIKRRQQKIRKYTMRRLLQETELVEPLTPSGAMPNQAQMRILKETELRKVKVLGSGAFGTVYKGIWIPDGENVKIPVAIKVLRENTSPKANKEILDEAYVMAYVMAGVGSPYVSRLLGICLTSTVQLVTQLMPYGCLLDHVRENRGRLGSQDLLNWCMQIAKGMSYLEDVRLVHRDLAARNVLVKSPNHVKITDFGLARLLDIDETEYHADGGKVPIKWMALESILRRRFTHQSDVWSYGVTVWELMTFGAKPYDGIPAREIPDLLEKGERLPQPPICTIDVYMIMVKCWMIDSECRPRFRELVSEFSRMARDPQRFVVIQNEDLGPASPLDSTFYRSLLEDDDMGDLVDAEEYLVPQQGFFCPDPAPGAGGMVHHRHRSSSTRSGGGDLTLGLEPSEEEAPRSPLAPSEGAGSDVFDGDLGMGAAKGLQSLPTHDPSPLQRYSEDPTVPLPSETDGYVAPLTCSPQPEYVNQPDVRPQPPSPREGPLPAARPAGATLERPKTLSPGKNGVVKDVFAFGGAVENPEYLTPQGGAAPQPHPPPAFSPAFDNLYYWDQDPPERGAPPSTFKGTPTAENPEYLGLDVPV
- METHOD_DESCRIPTION: Cell growth inhibition assay (CellTiterGlo), BaF3_HER2YVMA
- Assay type: cell-based
- PARTICULARS: 3-day treatment, CellTiterGlo, read-out: Cell growth inhibition activity, HER2 - YVMA
MEASURED_QUANTITY: GI50

Some molecules with recorded GI50:
Cc1cc(Nc2c(C#N)cnn3ccc(C4CN(C(=O)/C=C/CN(C)C)C4)c23)ccc1Oc1ccn2ncnc2c1; > 5 µM
CN(C)C/C=C/C(=O)N1CC(c2ccn3ncnc(Nc4cnc(Oc5cccc(C(F)(F)F)c5)c(Cl)c4)c23)C1; 1.5 to 5 µM
Cc1cc(Nc2ncnn3ccc(N4CC(NC(=O)/C=C/CN5CCOCC5)C4)c23)ccc1Oc1ccn2ncnc2c1; 1.5 to 5 µM

Here is another molecule to look at.
Requested read-out: GI50. Entry: Cc1cc(Nc2ncnn3ccc(C4CCN(C(=O)C5CC(=O)N5)CC4)c23)ccc1Oc1ccn2ncnc2c1 (stereo not shown) [Example 36, acetate]
1.5 to 5 µM

====

- TEST_TARGET: BaF3_HER2WT cells (Homo sapiens, UniProt P04626)
- Sequence (P04626 whole entry, change not shown): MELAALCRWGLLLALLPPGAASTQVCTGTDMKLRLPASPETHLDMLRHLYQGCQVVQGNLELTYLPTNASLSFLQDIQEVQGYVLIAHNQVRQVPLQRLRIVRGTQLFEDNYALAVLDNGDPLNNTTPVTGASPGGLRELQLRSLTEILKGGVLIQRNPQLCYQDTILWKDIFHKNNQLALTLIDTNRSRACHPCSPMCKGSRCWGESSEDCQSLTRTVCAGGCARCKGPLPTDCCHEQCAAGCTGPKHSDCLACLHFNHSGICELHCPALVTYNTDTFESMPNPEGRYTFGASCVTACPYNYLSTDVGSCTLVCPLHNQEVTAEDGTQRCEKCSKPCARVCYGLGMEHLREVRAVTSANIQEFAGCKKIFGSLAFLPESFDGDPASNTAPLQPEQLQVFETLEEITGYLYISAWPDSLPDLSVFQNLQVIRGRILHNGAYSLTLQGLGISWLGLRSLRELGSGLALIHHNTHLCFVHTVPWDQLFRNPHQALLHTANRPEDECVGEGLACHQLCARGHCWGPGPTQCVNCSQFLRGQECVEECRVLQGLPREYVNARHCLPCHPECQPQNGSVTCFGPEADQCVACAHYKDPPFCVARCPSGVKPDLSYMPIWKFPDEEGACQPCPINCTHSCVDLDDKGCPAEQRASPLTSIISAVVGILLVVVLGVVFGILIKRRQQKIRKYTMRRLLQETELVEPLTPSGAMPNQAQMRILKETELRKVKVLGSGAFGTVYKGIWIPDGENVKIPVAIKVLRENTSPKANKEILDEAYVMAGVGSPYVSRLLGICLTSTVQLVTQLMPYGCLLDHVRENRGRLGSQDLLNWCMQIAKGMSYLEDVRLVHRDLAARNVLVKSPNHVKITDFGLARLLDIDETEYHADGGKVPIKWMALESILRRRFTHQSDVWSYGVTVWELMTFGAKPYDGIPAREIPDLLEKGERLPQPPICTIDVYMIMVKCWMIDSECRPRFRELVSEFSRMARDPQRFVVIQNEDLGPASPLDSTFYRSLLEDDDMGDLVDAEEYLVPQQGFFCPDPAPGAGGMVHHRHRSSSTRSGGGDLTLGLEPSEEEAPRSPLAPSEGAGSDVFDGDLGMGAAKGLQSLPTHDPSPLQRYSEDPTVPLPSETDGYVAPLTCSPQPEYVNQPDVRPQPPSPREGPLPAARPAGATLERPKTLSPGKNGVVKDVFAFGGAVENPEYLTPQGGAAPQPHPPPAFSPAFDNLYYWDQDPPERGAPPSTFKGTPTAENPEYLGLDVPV
- METHOD_DESCRIPTION: Cell growth inhibition assay (CellTiterGlo), BaF3_HER2WT
- Assay type: cell-based
- PARTICULARS: 3-day treatment, CellTiterGlo, read-out: Cell growth inhibition activity, HER2 WT
Reported values of GI50 for individual entries

Use these answered entries as a reference point.
Cc1cc(Nc2ncnn3ccc(C4CCN(C(=O)/C=C/CN5CCC6(COC6)C5)CC4)c23)ccc1Oc1ccc2c(c1)ncn2C [Example 129]; < 200 nM
CNC/C=C/C(=O)N1CCC(c2ccn3ncnc(Nc4ccc(Oc5ccn6ncnc6c5)c(C)c4)c23)CC1 [Example 177]; < 200 nM

Here's the next entry for you.
Given C=CC(=O)N(C)C1CCCN(c2ccn3ncnc(Nc4ccc(Oc5ccn6ncnc6c5)c(C)c4)c23)C1 (stereo not drawn) [Example 69] , state its recorded GI50.
< 200 nM
